Assign melting point to each entry below.

Example compounds with recorded melting point:
structureNotation: CCc1nc2c(N)nc3cc(-c4cccnc4)ccc3c2n1CC(C)(C)O
melting point: 245 to 247 °C
//
structureNotation: CC(C)Cn1cnc2c(N)nc3ccc(CCc4ccncc4)cc3c21
melting point: 221 to 224 °C
//
structureNotation: Nc1nc2cc(-c3ccccc3)ccc2c2c1nc(CC1CC1)n2CCOc1ccccc1
melting point: 188 to 189 °C
//
structureNotation: CCOCc1nc2c(N)nc3ccc(-c4cncc(CO)c4)cc3c2n1CC(C)(C)O
melting point: 230 to 232 °C
//
structureNotation: CCOCc1nc2c(N)nc3cc(-c4ccc(N(C)C)cc4)ccc3c2n1CC(C)C
melting point: 214.5 to 215.5 °C

API: the following record is the query input.
Asked: Can you share its melting point? I mean this compound: CCOCc1nc2c(N)nc3cc(-c4cccc(CO)c4)ccc3c2n1CCCCN1CCCS1(=O)=O
Given back: 158 to 161 °C

---

observedProperty: melting point

Use the examples below as a reference point.
compound: COCCc1nc2c(N)nc3cc(-c4cncc(CO)c4)ccc3c2n1CC(C)(C)O [Example 141]
melting point: 210 to 211 °C
//
compound: CCCCc1nc2c(N)nc3cc(-c4ccccc4)ccc3c2n1CC(C)C [Example 2]
melting point: > 250 °C
//
compound: COCCc1nc2c(N)nc3ccc(-c4cccc(C(C)=O)c4)cc3c2n1CCCN1CCCC1=O (hydrate or solvate) [Example 189]
melting point: 164 to 167 °C
//
compound: COCc1nc2c(N)nc3cc(-c4cncnc4)ccc3c2n1CC(C)(C)O [Example 395]
melting point: 220 to 220.5 °C
//
compound: CCCOc1ccccc1-c1ccc2c(c1)nc(N)c1nc(COCC)n(CC(C)C)c12 [Example 109]
melting point: 168 to 169 °C

Turning now to a further compound:
Asked: Look up melting point for this compound: CCOCc1nc2c(N)nc3cc(-c4cccnc4)ccc3c2n1CC(C)(C)OCCS(C)(=O)=O [Example 363]
Given back: 202 to 204 °C

---

observedProperty: melting point

compound: CCCCc1nc2c(N)nc3cc(/C=C/c4ccccc4)ccc3c2n1CC(C)C [Example 7]
observedProperty: melting point
result: 215 to 216 °C
--
compound: CC(C)Cn1cnc2c(N)nc3cc(CCc4ccccc4)ccc3c21 [Example 430]
observedProperty: melting point
result: 172 to 173 °C

Could I get melting point for every one of these entries?
1. CCCc1nc2c(N)nc3cc(-c4cccnc4)ccc3c2n1CCCCNC(=O)OC(C)(C)C [Example 158]
2. CCOCc1nc2c(N)nc3cc(-c4ccc(CO)cc4)ccc3c2n1CC1COC(C)(C)O1 (centres unmarked) [Example 160]
3. CCOCc1nc2c(N)nc3cc(-c4cccnc4)ccc3c2n1CCCCNC(=O)OC(C)(C)C [Example 157]

Given back:
["136 to 138 °C", "219 to 220 °C", "117 to 119 °C"]

---

Counter-ions that a name gives are not always drawn.
observedProperty: melting point

Below are worked cases with known answers.
compound: CCOCc1nc2c(N)nc3cc(-c4ccccc4)ccc3c2n1CC1CCN(C(=O)OC(C)(C)C)CC1 [Example 191]
melting point: 194 to 195 °C
--
compound: CCOCc1nc2c(N)nc3cc(-c4cccc(C#N)c4)ccc3c2n1CC(C)C [Example 111]
melting point: 210 to 211 °C
--
compound: CCc1nc2c(N)nc3cc(-c4cccnc4)ccc3c2n1CC1CCN(C(=O)NC(C)C)CC1 (hydrate or solvate) [Example 408]
melting point: 255 to 256 °C
--
compound: CCc1nc2c(N)nc3cc(-c4cccnc4)ccc3c2n1CC1CCNCC1 (as salt: hydrochloride) [Example 405, trihydrochloride]
melting point: > 250 °C
--
compound: Cc1ccc(-c2ccc3nc(N)c4ncn(CC(C)C)c4c3c2)cc1C [Example 119]
melting point: 204 to 205 °C

For each of the compounds below, note its melting point.
1. CCCNC(=O)NCCCCn1c(COCC)nc2c(N)nc3cc(-c4cccnc4)ccc3c21 [Example 378]
2. CCOc1ccccc1-c1ccc2c(c1)nc(N)c1nc(COC)n(CC(C)(C)O)c12 [Example 394]

Given back:
191 to 193 °C
173 to 175 °C

Origin of the recorded values: patent US7598382B2
